Data origin, for the record: PubChem BioAssay (Tox21)

# measurement-description: A CellTox Green Cytotoxicity Assay to monitor cytotoxicity in HEK293 cells - 32 hour (AID 1224881); also: nearly all actives have a fitted effect of over 40% in size
# test-conditions: CellTox Green fluorescence; series mostly up to 76.8 µM
Inconclusive results are not listed. Activity calls are given as the source filed them. Calls follow the shape of the dose curve; as a rule, active = well fitted activation curve with a large enough effect in the repeat runs; inconclusive = weak or mixed curves; inactive = flat fitted curve, though single readings scatter.
Labels: Yes (active), No (inactive)

| compound-structure | answer-label |
| --- | --- |
| COc1cc(OC)c(OC)cc1C=O | No |
| O=[N+]([O-])c1c(Cl)c(Cl)cc(Cl)c1Cl | Yes |
| Cc1ccc(N(SC(F)(Cl)Cl)S(=O)(=O)N(C)C)cc1 | Yes |

* * *

# measurement-description: qHTS assay to identify small molecule antagonists of the thyroid receptor (TR) signaling pathway - cell viability counter screen (AID 743064); also: nearly all actives have a fitted effect of over 50% in size
# test-conditions: GH3.TRE-Luc viability, CellTiter-Fluor, 24 h; series mostly up to 70.3 µM
Inconclusive results are not listed. Activity calls are given as the source filed them. Calls follow the shape of the dose curve; as a rule, active = well fitted cell-killing curve with a large enough effect in the repeat runs; inconclusive = weak or mixed curves, or effect the other way; inactive = no such curve, though single readings can be large or run the other way.
Labels: true (1) for active, false (0) for inactive

| compound | answer-label |
| --- | --- |
| O=C1Nc2ccc(Cl)cc2C(c2ccccc2Cl)=NC1O (stereo not drawn) | false (0) |
| CC[N+](C)(CC)CCOC(=O)C(O)(c1ccccc1)c1ccccc1 | false (0) |
| CN[C@H]1C[C@@H](N)[C@H](O)[C@@H](O[C@@H]2O[C@H](CO)[C@H](O)[C@@H]3OC4(O[C@H]23)O[C@H](C(N)CO)[C@H](O)[C@H](O)[C@H]4O)[C@@H]1O (stereo partly drawn) | false (0) |
| CC(=O)OCC(=O)[C@H]1CC[C@H]2[C@@H]3CC[C@H]4C[C@H](O)CC[C@]4(C)[C@H]3C(=O)C[C@]12C | false (0) |
| CCCC(C)(COC(N)=O)COC(=O)NC1CC1 (stereo not drawn) | false (0) |
| CCCCCc1cc(O)c2c(c1)OC(C)(C)c1ccc(C)cc1-2 | true (1) |
| C=CCC1(C(C)CCC)C(=O)N=C(S)NC1=O (stereo not drawn) | false (0) |
| C[C@@H](N)C(=O)c1ccccc1 | false (0) |
| Oc1cccc[c]1[Hg][Cl] | true (1) |
| COC(=O)[C@H]1[C@@H](OC(=O)c2ccccc2)C[C@@H]2CC[C@H]1N2C | false (0) |
| N#CC(C#N)=Cc1cc(O)c(O)c(O)c1 | true (1) |
| C[C@]12CCC(=O)C=C1C=C[C@@H]1[C@@H]2CC[C@@]2(C)[C@H]1CC[C@@]2(O)CCC(=O)O | false (0) |
| OCC(c1ccc(Cl)cc1)c1ccc(Cl)cc1 | true (1) |
| CN1CCCC(=C(c2cccs2)c2cccs2)C1 | false (0) |
| COC(COC(N)=O)C1=C(N2CC2)C(=O)C(C)=C(N2CC2)C1=O (stereo not drawn) | true (1) |
| C[C@@H]1[C@@H]2Cc3ccc(O)cc3[C@@]1(C)CCN2CCc1ccccc1 | true (1) |
| Clc1ccccc1-c1ccccc1Cl | false (0) |
| CCC1C(C)=NN=C(c2ccc(OC)c(OC)c2)c2cc(OC)c(OC)cc21 (stereo not drawn) | false (0) |

* * *

# system: Acetylcholinesterase (Homo sapiens) (UniProt P22303)
# Sequence (P22303 whole entry, looked up): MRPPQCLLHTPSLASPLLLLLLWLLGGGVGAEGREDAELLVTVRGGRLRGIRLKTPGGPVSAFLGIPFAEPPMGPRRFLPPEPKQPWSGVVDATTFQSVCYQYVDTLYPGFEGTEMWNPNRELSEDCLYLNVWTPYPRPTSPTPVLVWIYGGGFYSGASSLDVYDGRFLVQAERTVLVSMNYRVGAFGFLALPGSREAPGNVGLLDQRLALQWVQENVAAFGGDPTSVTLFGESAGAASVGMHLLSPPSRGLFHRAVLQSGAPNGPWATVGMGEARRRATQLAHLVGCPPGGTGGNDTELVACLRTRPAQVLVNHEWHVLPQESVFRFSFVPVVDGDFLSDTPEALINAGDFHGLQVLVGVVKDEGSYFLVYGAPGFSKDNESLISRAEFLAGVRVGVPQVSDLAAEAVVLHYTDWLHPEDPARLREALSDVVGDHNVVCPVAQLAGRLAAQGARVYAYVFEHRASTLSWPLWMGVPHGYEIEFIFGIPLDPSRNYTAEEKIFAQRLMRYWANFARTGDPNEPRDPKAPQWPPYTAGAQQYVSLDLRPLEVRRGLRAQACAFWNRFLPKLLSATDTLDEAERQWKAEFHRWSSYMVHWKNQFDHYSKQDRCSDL
# measurement-description: Acetylcholinesterase (AChE) small molecule antagonists: fluorescence cell-based qHTS assay (AID 1347398); also: nearly all actives have a fitted effect of over 50% in size; also: potency is read from the fitted curve at half-maximal effect
# test-conditions: SH-SY5Y cells; AChE activity; series mostly up to 115 µM
# Source text: National Center for Advancing Translational Sciences [NCATS] Division of Preclinical Innovation [DPI] U.S. Environmental Protection Agency [EPA] National Institutes of Environmental Health Sciences [NIEHS] National Toxicology Program [NTP] […] A homogenous cell-based assay using Amplitetrade mark Fluorimetric Acetylcholinesterase Assay Kit *Green Fluorescence* (AAT Bioquest, Sunnyvale, CA) was used to evaluate the chemicals in the Tox21 10K library that inhibit AChE activity. […]
Records with an inconclusive call do not appear. Activity calls are given as the source filed them. Calls follow the shape of the full dose curve.
metric: Potency

| compound | metric | experimental-value |
| --- | --- | --- |
| CC(=O)c1ccc2ccc3ccccc3c2c1 | Potency | inactive |
| Brc1cc(Br)cc(Br)c1 | Potency | inactive |
| COCCOC(=O)C1=C(C)NC(C)=C(C(=O)OC(C)C)C1c1cccc([N+](=O)[O-])c1 (stereo not drawn) | Potency | inactive |
| O=C1O[C@H](CO)[C@@H](O)[C@H](O)[C@H]1O | Potency | inactive |
| F[B-](F)(F)F | Potency | inactive |
| O=C(NCCCN1CCOCC1)c1ccc(Cl)cc1 | Potency | inactive |
| CCCCOC(=O)COc1ccc(Cl)cc1Cl | Potency | inactive |
| OCc1cccc(Oc2ccccc2)c1 | Potency | inactive |
| CCN(O)CC | Potency | inactive |
| C/C=C/c1ccc(O)c(OC)c1 | Potency | inactive |
| CCCc1c(OCCCOc2ccc(OCC(=O)O)cc2)ccc(C(C)=O)c1O | Potency | inactive |
| S=C([S-])NCCNC(=S)[S-].S=C([S-])NCCNC(=S)[S-].[Mn+2].[Zn+2] | Potency | 30.9 µM (active) |
| CCOc1ccc(OCC)c(Cl)c1 | Potency | inactive |
| CCCOCCC | Potency | inactive |
| CCCCCCCCCCCCN1CCCC1=O | Potency | inactive |
| CCOCCOCC | Potency | inactive |
| CC1=C(C)S(=O)(=O)CCS1(=O)=O | Potency | inactive |
| CCCCC(CC)COP(=O)(O)OCC(CC)CCCC (stereo not drawn) | Potency | inactive |
